assay system: GDP-bound KRAS protein (aa 1-169), containing both G12C and C118A amino acid substitutions (Homo sapiens (Human), UniProt P01116, C118A/G12C)
Sequence (P01116 other isoform, or with tags, fused parts or gaps G12C/C118A): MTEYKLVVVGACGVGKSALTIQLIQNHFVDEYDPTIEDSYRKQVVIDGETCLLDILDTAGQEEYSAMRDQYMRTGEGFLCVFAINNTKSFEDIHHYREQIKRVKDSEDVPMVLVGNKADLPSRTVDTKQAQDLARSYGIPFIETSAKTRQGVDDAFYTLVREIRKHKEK
test protocol: Coupled nucleotide exchange assay (SOS-mediated nucleotide exchange, AlphaScreen)
Assay type: biochemical
setup conditions: read-out: Coupled exchange IC50 (5 min; μM); 5 min compound pre-incubation
experimental endpoint: IC50 (µM)
Report the figure in µM without appending any unit label.

C=CC(=O)N1C[C@H](C)N(c2nc(=O)n(-c3c(C)ccnc3C(C)C)c3nc(-c4cc(Br)ccc4F)c(Cl)cc23)C[C@H]1C (atropisomer, axis not shown; (M))    0.048
C=CC(=O)N1C[C@H](C)N(c2nc(=O)n(-c3c(C)ccnc3C(C)C)c3nc(-c4cccc(F)c4C(F)(F)F)c(Cl)cc23)C[C@H]1C (atropisomer, axis not shown; (M))    0.039
C=CC(=O)N1C[C@H](C)N(c2nc(=O)n(-c3c(C)ccnc3C(C)C)c3nc(-c4ccccc4OC(F)F)c(Cl)cc23)C[C@H]1C (atropisomer, axis not shown; (M))    0.121
C=CC(=O)N1CCN(c2nc(=O)n(-c3c(C(C)C)ccnc3C(C)C)c3nc(-c4ccccc4C)c(Cl)cc23)[C@@H](C)C1 (single isomer, unassigned) [Example 124-10]    0.046
C=CC(=O)N1C[C@H](C)N(c2nc(=O)n(-c3c(N(C)C)ccnc3C(C)C)c3nc(-c4ccccc4F)c(Cl)cc23)C[C@H]1C [Example 55-51]    0.19
C=CC(=O)N1CCN(c2nc(=O)n(-c3c(C)ccnc3C(C)C)c3nc(-c4ccccc4F)c(Cl)cc23)C2CC21 (atropisomer, axis not shown; (M))    0.705

Query :: Read the entry C=CC(=O)N1[C@H](C)CN(c2nc(=O)n(-c3c(C)cc(N)nc3C(C)C)c3nc(-c4ccccc4F)c(F)cc23)C[C@@H]1C (single isomer, unassigned) [Example 123-4] and write its reported IC50.
Result :: 1

Query :: Read the entry C=CC(=O)N1C[C@H](C)N(c2nc(=O)n(-c3c(C)ccnc3C(C)C)c3nc(-c4c(F)cccc4C(N)=O)c(F)cc23)C[C@H]1C (atropisomer, axis not shown; (M)) and write its reported IC50.
Result :: 0.067

Query :: Read the entry C=CC(=O)N1CCN(c2nc(=O)n(-c3c(C)ccnc3C(C)C)c3nc(-c4ccccc4F)c(Cl)cc23)CC1CC#N (atropisomer, axis not shown; (M)) [Example 145-2-1] and write its reported IC50.
Result :: 0.294

Query :: Read the entry C=CC(=O)N1C[C@H](C)N(c2nc(=O)n(-c3c(C)ccnc3C(C)C)c3nc(-c4ccccc4NC(=O)C4CC4)c(Cl)cc23)C[C@H]1C (atropisomer, axis not shown; (M)) and write its reported IC50.
Result :: 0.06

----------
assay system: GDP-bound KRAS protein (aa 1-169), containing both G12C and C118A amino acid substitutions (Homo sapiens (Human), UniProt P01116, C118A/G12C)
test protocol: Coupled nucleotide exchange assay (SOS-mediated nucleotide exchange, AlphaScreen)
Format: biochemical
setup conditions: read-out: Coupled exchange IC50 (5 min; μM); 5 min compound pre-incubation
experimental endpoint: IC50

Query :: Read the entry C=CC(=O)N1C[C@H](C)N(c2nc(=O)n(-c3c(C)ccnc3C(C)C)c3nc(N4CCCC4C(F)F)c(Cl)cc23)C[C@H]1C (atropisomer, axis not shown; (M)) and write its reported IC50.
Result :: 11 µM

Query :: Read the entry C=CC(=O)N1C[C@H](C)N(c2nc(=O)n(-c3c(C)ccnc3C(C)C)c3nc(-c4cccc5cn[nH]c45)c(Cl)cc23)C[C@H]1C (atropisomer, axis not shown; (M)) and write its reported IC50.
Result :: 0.479 µM

Query :: Read the entry C=CC(=O)N1C[C@H](C)N(c2nc(=O)n(-c3c(C)ccnc3C(C)C)c3nc(C#CC(C)(C)C)c(Cl)cc23)C[C@H]1C (atropisomer, axis not shown; (M)) and write its reported IC50.
Result :: 34 µM

Query :: Read the entry C=CC(=O)N1[C@H](C)CN(c2nc(=O)n(-c3c(C)cc(N)nc3C(C)C)c3nc(-c4c(N)cccc4F)c(F)cc23)C[C@@H]1C (single isomer, unassigned) [Example 123-5] and write its reported IC50.
Result :: 7.53 µM

Query :: Read the entry C=CC(=O)N1C[C@H]2CCC[C@@H](C1)N2c1nc(=O)n(-c2c(C)ccnc2C(C)C)c2nc(-c3ccccc3F)c(Cl)cc12 (atropisomer, axis not shown; (M)) and write its reported IC50.
Result :: 5.46 µM

Query :: Read the entry C=CC(=O)N1C[C@H](C)N(c2nc(=O)n(-c3c(C)ccnc3C(C)C)c3nc(-c4cc(F)c(F)cc4N)c(Cl)cc23)C[C@H]1C (atropisomer, axis not shown; (M)) and write its reported IC50.
Result :: 0.014 µM

Query :: Read the entry C=CC(=O)N1C[C@H](C)N(c2nc(=O)n(-c3c(C)ccnc3C(C)C)c3nc(-c4ccccc4C(C)=O)c(Cl)cc23)C[C@H]1C (atropisomer, axis not shown; (M)) and write its reported IC50.
Result :: 0.117 µM

Query :: Read the entry C=CC(=O)N1C[C@H](C)N(c2nc(=O)n(-c3c(N(C)C)ccnc3C(C)C)c3nc(-c4c(F)cccc4NC(=O)C4CC4)c(Cl)cc23)C[C@H]1C [Example 122-3] and write its reported IC50.
Result :: 0.503 µM

Query :: Read the entry C=CC(=O)N1C[C@H](C)N(c2nc(=O)n(-c3c(C(C)C)cccc3S(C)(=O)=O)c3nc(-c4ccccc4F)c(Cl)cc23)C[C@H]1C (single isomer, unassigned) [Example 208-2] and write its reported IC50.
Result :: 0.117 µM

Query :: Read the entry C=CC(=O)N1C[C@H](C)N(c2nc(=O)n(-c3c(C)ccnc3C(C)C)c3nc(-c4cc(O)cc5ccccc45)c(Cl)cc23)C[C@H]1C (atropisomer, axis not shown; (M)) and write its reported IC50.
Result :: 0.053 µM

Recorded values, source patent US11285156B2.
